Data origin: patent US12091426B2

Target: HPK1 (Homo sapiens, UniProt Q92918)
Construct: A HiBiT tag was introduced by CRISPR on the N terminus of HPK1 in Jurkat cells; host or cells: Jurkat cells (ATCC TIB-152), monoclonal line with CRISPR knock-in of HiBiT at the endogenous HPK1 locus
Sequence (Q92918 whole entry): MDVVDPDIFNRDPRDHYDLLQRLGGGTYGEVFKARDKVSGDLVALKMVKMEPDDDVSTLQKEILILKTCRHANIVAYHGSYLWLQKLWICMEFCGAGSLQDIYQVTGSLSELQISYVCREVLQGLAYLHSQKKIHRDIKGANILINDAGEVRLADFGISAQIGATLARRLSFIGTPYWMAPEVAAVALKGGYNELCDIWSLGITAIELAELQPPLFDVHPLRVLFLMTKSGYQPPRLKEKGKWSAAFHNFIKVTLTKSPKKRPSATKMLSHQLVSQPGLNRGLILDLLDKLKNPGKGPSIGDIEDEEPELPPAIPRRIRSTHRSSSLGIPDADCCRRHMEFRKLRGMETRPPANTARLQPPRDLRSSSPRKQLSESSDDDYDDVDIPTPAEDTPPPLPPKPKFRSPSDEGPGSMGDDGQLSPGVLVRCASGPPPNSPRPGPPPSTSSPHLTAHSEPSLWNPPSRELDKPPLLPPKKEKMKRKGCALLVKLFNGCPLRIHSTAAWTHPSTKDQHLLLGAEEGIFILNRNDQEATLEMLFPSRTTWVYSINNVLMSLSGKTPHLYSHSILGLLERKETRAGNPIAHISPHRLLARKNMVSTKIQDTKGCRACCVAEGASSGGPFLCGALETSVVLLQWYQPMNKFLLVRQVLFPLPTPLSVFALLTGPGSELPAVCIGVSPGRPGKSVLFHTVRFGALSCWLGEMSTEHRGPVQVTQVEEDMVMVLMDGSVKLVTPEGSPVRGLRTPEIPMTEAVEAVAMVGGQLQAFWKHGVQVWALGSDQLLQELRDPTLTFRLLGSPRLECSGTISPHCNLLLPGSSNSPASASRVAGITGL
Assay: HPK1 Cellular HiBit Degradation Assay
Format: cell-based
Conditions: Jurkat, HiBiT HPK1 Jurkat cells, 24 hrs; maximum degradation vs DMSO vehicle control; read-out: Dmax Category
experimental_readout: Dmax

compound	Dmax
CC(C)n1cnc2cc(-c3ccc4c(c3)N([C@H]3C[C@@H](N5CCCCC5)C3)C(=O)C43CCN(C(=O)C4CCN(C(=O)C5CCN(c6ncc(C7CCC(=O)NC7=O)cn6)CC5)CC4)CC3)nc(Nc3ccncc3F)c21 (mixture of isomers)	50 to 70%
CC(C)n1cnc2cc(-c3ccc4c(c3)N([C@H]3C[C@@H](N5CCCCC5)C3)C(=O)C43CCN(C(=O)C45CN(C(=O)C6CCN(c7ccc(C8CCC(=O)NC8=O)cn7)CC6)CC(F)(C4)C5)CC3)nc(NC3CC3)c21 (mixture of isomers)	70 to 85%
CC(C)n1cnc2cc(-c3ccc4c(c3)N([C@H]3C[C@@H](N5CCCCC5)C3)C(=O)C43CCN(C(=O)C4(C)CCN(C(=O)C5CCN(c6ccc(C7CCC(=O)NC7=O)cn6)CC5)CC4)CC3)nc(OC3CC3)c21 (stereo partly shown)	> 85%

Here is another compound to look at.
Supply Dmax value. Item: Cc1cc(F)c(Nc2nc(-c3ccc4c(c3)N([C@H]3C[C@@H](N5CCCCC5)C3)C(=O)C43CCN(C(=O)C4=CCN(C(=O)[C@H]5CC[C@H](Nc6cccc7c6C(=O)N(C6CCC(=O)NC6=O)C7=O)CC5)CC4)CC3)cc3ncn(C(C)C)c23)cc1C(=O)NC(C)C (mixture of isomers)
50 to 70%

----------
Reported values of DC50 for individual entries
Target: HPK1 (Homo sapiens)
Construct: A HiBiT tag was introduced by CRISPR on the N terminus of HPK1 in Jurkat cells; host or cells: Jurkat cells (ATCC TIB-152), monoclonal line with CRISPR knock-in of HiBiT at the endogenous HPK1 locus
Assay: HPK1 Cellular HiBit Degradation Assay
Format: cell-based
Conditions: HiBiT HPK1 Jurkat cells, 24 hrs; concentration at which 50% of HPK1 was remaining; read-out: DC50 Category

compound	experimental_readout	result
CC(C)n1cnc2cc(-c3ccc4c(c3)N([C@H]3C[C@@H](N5CCCCC5)C3)C(=O)C43CCN(C(=O)C4CC5CCC4N(C(=O)C4CCN(c6ccc(C7CCC(=O)NC7=O)cn6)CC4)C5)CC3)nc(NC3CC3)c21 (mixture of isomers)	DC50	100 to 500 nM

Please list DC50 recorded for the compound CC(C)n1cnc2cc(-c3ccc4c(c3)N([C@H]3C[C@@H](N5CCCCC5)C3)C(=O)C43CCN(C(=O)C4CCN(C(=O)[C@H]5CC[C@H](N(C)c6ccc(C7CCC(=O)NC7=O)cn6)CC5)CC4)CC3)nc(Nc3ccccc3F)c21 (mixture of isomers)
< 100 nM

Dear colleague, please send me the reported DC50 for Cc1cc(F)c(Nc2nc(-c3ccc4c(c3)N([C@H]3C[C@@H](N5CCCCC5)C3)C(=O)C43CCN(C(=O)C4CCN(C(=O)C5CCN(c6ccc(C7CCC(=O)NC7=O)cn6)CC5)CC4)CC3)cc3ncn(C(C)C)c23)cc1C(=O)NC(C)C (mixture of isomers) when you can.
100 to 500 nM

// Input: CC(C)n1cnc2cc(-c3ccc4c(c3)N([C@H]3C[C@@H](N5CCCCC5)C3)C(=O)C43CCN(C(=O)C4CC45CCN(C(=O)C4CCN(c6ccc(C7CCC(=O)NC7=O)cn6)CC4)C5)CC3)nc(NC3CC3)c21 (mixture of isomers) . Output its DC50 only.
500 to 1000 nM

Return DC50 for the following compound: CC(C)n1cnc2cc(-c3ccc4c(c3)N([C@H]3C[C@@H](N5CCCCC5)C3)C(=O)C43CCN(C(=O)C4(C)CCN(C(=O)[C@H]5CC[C@H](Oc6ncc(C7CCC(=O)NC7=O)cn6)CC5)CC4)CC3)nc(NC3CC3)c21 (mixture of isomers)
100 to 500 nM

State its DC50 for this compound: CC(C)n1cnc2cc(-c3ccc4c(c3)N([C@H]3C[C@@H](N5CCCCC5)C3)C(=O)C43CCN(C(=O)C4CCN(C(=O)[C@H]5CC[C@H](Oc6ccc(C7CCC(=O)NC7=O)cn6)CC5)CC4)CC3)nc(Nc3ccccc3F)c21 (mixture of isomers)
100 to 500 nM

Please give the documented DC50 of Cc1cc(F)c(Nc2nc(-c3ccc4c(c3)N([C@H]3C[C@@H](N5CCCCC5)C3)C(=O)C43CCN(C(=O)c4cc(C(=O)N5CCN(c6ccc7c(c6)C(=O)N(C6CCC(=O)NC6=O)C7=O)CC5)n(C)n4)CC3)cc3ncn(C(C)C)c23)cc1C(=O)NC(C)C (mixture of isomers)
500 to 1000 nM

Specify DC50 for CC(C)n1cnc2cc(-c3ccc4c(c3)N([C@H]3C[C@@H](N5CCCCC5)C3)C(=O)C43CCN(C(=O)C4(C5CCN(C(=O)C6CCN(c7ccc(C8CCC(=O)NC8=O)cn7)CC6)CC5)CCC4)CC3)nc(NC3CC3)c21 (mixture of isomers) and stop.
< 100 nM
